system: Neu5Ac(a2-8)Neu5Ac(a2-8)Neu5Ac
procedure_text: glycan array binding signal (z-score within array); higher = stronger binding
test_parameters: glycan notation: IUPAC condensed, linker removed
About 410 targets per protein were measured; listed, in parts, are those with the strongest signals and a random draw of the rest.
quantity: glycan array binding signal (z-score)
The answer should be a number; do not append a unit.

Check the records and state glycan array binding signal (z-score) for Strep tagII-anxA1 (Homo sapiens), P04083 (protein) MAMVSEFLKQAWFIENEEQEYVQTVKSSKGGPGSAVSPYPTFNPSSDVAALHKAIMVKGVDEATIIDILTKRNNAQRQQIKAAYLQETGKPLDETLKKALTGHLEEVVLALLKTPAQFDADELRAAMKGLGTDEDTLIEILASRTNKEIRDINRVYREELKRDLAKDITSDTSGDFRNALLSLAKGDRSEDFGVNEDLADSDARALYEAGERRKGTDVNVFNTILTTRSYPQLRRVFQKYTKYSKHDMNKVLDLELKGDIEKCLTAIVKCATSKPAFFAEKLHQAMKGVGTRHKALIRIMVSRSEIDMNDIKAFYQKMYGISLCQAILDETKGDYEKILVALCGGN
-0.49
